- method.summary: Plasma NEFA and 3-HB in C57BL/6 mice
- Format: in vivo, mouse
- Design: unit not given here
- condition.parameters: Week 6, 50 mg/kg/week
Oligonucleotides are written 5' to 3', each unit as a sugar letter and its base; * is a phosphorothioate linkage, no mark a phosphodiester; rarer units and linkages stand in square brackets, end groups in braces. Plain capitals give the bases only. e = 2'-O-(2-methoxyethyl) (MOE); [5mC] = 5-methylcytosine; d = 2'-deoxy (DNA)
reported.property: 3-HB levels
Answer with the value's number alone.

>  <sequence.input>
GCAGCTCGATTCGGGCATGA (antisense eG*e[5mC]*eA*eG*e[5mC]*dT*d[5mC]*dG*dA*dT*dT*d[5mC]*dG*dG*dG*e[5mC]*eA*eT*eG*eA) [ISIS 447118]

>  <3-HB levels>
406

$$$$

Q: Fill in: 3-HB levels of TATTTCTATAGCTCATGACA (antisense eT*eA*eT*eT*eT*d[5mC]*dT*dA*dT*dA*dG*d[5mC]*dT*d[5mC]*dA*eT*eG*eA*e[5mC]*eA) [ISIS 447144] is ___
Result: 398

Q: Fill in: 3-HB levels of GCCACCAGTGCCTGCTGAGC (antisense eG*e[5mC]*e[5mC]*eA*e[5mC]*d[5mC]*dA*dG*dT*dG*d[5mC]*d[5mC]*dT*dG*d[5mC]*eT*eG*eA*eG*e[5mC]) [ISIS 447143] is ___
Result: 222

Q: Fill in: 3-HB levels of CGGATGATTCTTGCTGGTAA (antisense e[5mC]*eG*eG*eA*eT*dG*dA*dT*dT*d[5mC]*dT*dT*dG*d[5mC]*dT*eG*eG*eT*eA*eA) [ISIS 447114] is ___
Result: 449
